# protocolDescription: Solubility of the compound in PBS by nephelometric analysis
# Type: physicochemical
reportedEndpoint: solubility kinetic
The answer consists of two parts: a number and, after it, its unit.

Documented solubility kinetic of "COc1cc(OC)c(/C=C/S(=O)(=O)Nc2ccc(OC)c(N)c2)c(OC)c1" : 62.5 µM

* * *

# System: K562
# protocolDescription: Cytotoxicity against human K562 cells after 96 hrs by trypan blue exclusion assay
# Type: functional, cell-based
# experimentalParameters: K562, 96 h
reportedEndpoint: pIC50
Schema: pIC50 number; meaning minus log10 of the concentration expressed in molar units.

The compound listed as "O=S(=O)(/C=C/c1ccc(Br)cc1)Nc1ccc(F)cc1" shows pIC50 equal to 5.00

Reported pIC50 ( "COc1cc(OC)c(/C=C/S(=O)(=O)Nc2ccc(OC)c(OC(=O)C(C)(C)C3=C(C)C(=O)C=C(C)C3=O)c2)c(OC)c1" ) = 8.10

Reported pIC50 for "COc1cc(OC)c(/C=C/S(=O)(=O)Nc2cc([N+](=O)[O-])c(OC)c([N+](=O)[O-])c2)c(OC)c1" was 5.00

The reported pIC50 of the compound "COc1cc(OC)c(/C=C/S(=O)(=O)Nc2ccc(F)c(N)c2)c(OC)c1" was 5.30

Given item "COc1ccc(/C=C/S(=O)(=O)Nc2ccc(OC)c(F)c2)cc1" , the value recorded as its pIC50 is 6.00

The reported value for "COc1ccc(/C=C/S(=O)(=O)Nc2ccc(F)cc2)cc1" in terms of pIC50 is 5.00

Consider "COc1ccc(NS(=O)(=O)/C=C/c2c(F)c(F)c(F)c(F)c2F)cc1N" . Its measured pIC50 is 4.12

Measured pIC50 of "COc1ccc(/C=C/S(=O)(=O)Nc2ccc(OC)cc2)cc1" : 5.30

// pIC50 lookup, compound = "COc1ccc(NS(=O)(=O)/C=C/c2c(F)c(F)c(F)c(F)c2F)cc1" , result: 5.30

compound "COc1ccc(NS(=O)(=O)/C=C/c2c(OC)cc(OC)cc2OC)cc1" , pIC50 observed: 7.12

For this compound ( "O=S(=O)(/C=C/c1c(F)c(F)c(F)c(F)c1F)Nc1c(F)c(F)c(F)c(F)c1F" ), measured pIC50 is 4.46

Summary for this compound, "COc1ccc(/C=C/S(=O)(=O)Nc2c(F)c(F)c(F)c(F)c2F)cc1N" : pIC50 is 4.46

pIC50 reported for this compound "COc1ccc(/C=C/S(=O)(=O)Nc2c(OC)cc(OC)cc2OC)cc1" : 5.60

Value of pIC50 reported for the compound "COc1cc(OC)c(/C=C/S(=O)(=O)Nc2ccc(OC)c(NCC(=O)O)c2)c(OC)c1" is 7.70

According to the records, this compound "COc1ccc(NS(=O)(=O)/C=C/c2cc(OC)c(OC)c(OC)c2)cc1[N+](=O)[O-]" displays pIC50 of 4.12

Reported pIC50 of "COc1ccc(NS(=O)(=O)/C=C/c2c(OC)cc(OCCCC(=O)O)cc2OC)cc1O" : 5.00

The compound listed as "COc1ccc(NS(=O)(=O)/C=C/c2c(OC)cc(OCCCC(=O)O)cc2OC)cc1[N+](=O)[O-]" has a reported pIC50 of 4.00

# compound "COc1ccc(NS(=O)(=O)/C=C/c2cc(OC)c(OC)c(OC)c2)cc1" ; its pIC50 = 4.46

Form: compound = "COc1cc(OC)c(/C=C/S(=O)(=O)Nc2ccc(OC)c(OP(=O)(O)O)c2)c(OC)c1" ; pIC50 = 8.12

Reported pIC50 ( COC(=O)C(Nc1cc(NS(=O)(=O)/C=C/c2c(OC)cc(OC)cc2OC)ccc1OC)c1ccccc1 (stereo not given) ) = 5.60
